Each entry below carries its reported pIC50.
system: Bel-7402; assay: Cytotoxicity against human Bel7402 cells after 72 hrs by MTT assay; format: functional, cell-based; details: Bel-7402, 72 h
pIC50: −log10 of the molar value.
assay.readout: pIC50

{"structure.smiles": "C=C1C(=O)[C@@]23C(=O)O[C@H]4CCC(C)(C)[C@H]5[C@H](O)OC[C@@]45[C@@H]2CC[C@@H]1[C@H]3OC(=O)CC", "readout.value": 5.82}
{"structure.smiles": "C=C1C(=O)[C@@]23C(=O)O[C@H]4CCC(C)(C)[C@H]5[C@H](O)OC[C@@]45[C@@H]2CC[C@@H]1[C@H]3OC(=O)c1ccc(Cl)cc1", "readout.value": 6.06}
{"structure.smiles": "C=C1C(=O)[C@@]23C(=O)O[C@H]4CCC(C)(C)[C@H]5[C@H](O)OC[C@@]45[C@@H]2CC[C@@H]1[C@H]3OC(=O)c1ccc([N+](=O)[O-])cc1", "readout.value": 6.00}
{"structure.smiles": "C=C1C(=O)[C@@]23C(=O)O[C@H]4CCC(C)(C)[C@H]5[C@H](O)OC[C@@]45[C@@H]2CC[C@@H]1[C@H]3OC(=O)c1ccc(C(F)(F)F)cc1", "readout.value": 5.90}
{"structure.smiles": "C=C1C(=O)[C@@]23C(=O)O[C@H]4CCC(C)(C)[C@H]5[C@H](O)OC[C@@]45[C@@H]2CC[C@@H]1[C@H]3OC(=O)c1ccccc1", "readout.value": 5.85}

* * *

Each entry below carries its reported pIC50.
test system: K562; experiment: Cytotoxicity against human K562 cells after 72 hrs by MTT assay; format: functional, cell-based; settings: K562, 72 h
pIC50: −log10 of the molar value.

{"structure.smiles": "C=C1C(=O)[C@@]23C(=O)O[C@H]4CCC(C)(C)[C@H]5[C@H](O)OC[C@@]45[C@@H]2CC[C@@H]1[C@H]3OC(=O)c1ccccc1", "pIC50": 6.68}
{"structure.smiles": "C=C1C(=O)[C@@]23C(=O)O[C@H]4CCC(C)(C)[C@H]5[C@H](O)OC[C@@]45[C@@H]2CC[C@@H]1[C@H]3OC(=O)c1ccccc1Cl", "pIC50": 6.66}
{"structure.smiles": "C=C1C(=O)[C@@]23C(=O)O[C@H]4CCC(C)(C)[C@H]5[C@H](O)OC[C@@]45[C@@H]2CC[C@@H]1[C@H]3OC(=O)c1cc(F)c(F)c(F)c1F", "pIC50": 5.98}
{"structure.smiles": "C=C1C(=O)[C@@]23C(=O)O[C@H]4CCC(C)(C)[C@H]5[C@H](O)OC[C@@]45[C@@H]2CC[C@@H]1[C@H]3OC(C)=O", "pIC50": 5.95}
{"structure.smiles": "C=C1C(=O)[C@@]23C(=O)O[C@H]4CCC(C)(C)[C@H]5[C@H](O)OC[C@@]45[C@@H]2CC[C@@H]1[C@H]3OC(=O)c1ccc(Cl)cc1", "pIC50": 6.62}
{"structure.smiles": "C=C1C(=O)[C@@]23C(=O)O[C@H]4CCC(C)(C)[C@H]5[C@H](O)OC[C@@]45[C@@H]2CC[C@@H]1[C@H]3OC(=O)c1ccc(OC)cc1", "pIC50": 6.16}
{"structure.smiles": "C=C1C(=O)[C@@]23C(=O)O[C@H]4CCC(C)(C)[C@H]5[C@H](O)OC[C@@]45[C@@H]2CC[C@@H]1[C@H]3OC(=O)CC", "pIC50": 5.99}
{"structure.smiles": "C=C1C(=O)[C@@]23C(=O)O[C@H]4CCC(C)(C)[C@H]5[C@H](O)OC[C@@]45[C@@H]2CC[C@@H]1[C@H]3OC(=O)c1ccc(C)cc1", "pIC50": 6.85}
{"structure.smiles": "C=C1C(=O)[C@@]23C(=O)O[C@H]4CCC(C)(C)[C@H]5[C@H](O)OC[C@@]45[C@@H]2CC[C@@H]1[C@H]3OC(=O)c1ccc([N+](=O)[O-])cc1", "pIC50": 6.59}
{"structure.smiles": "C=C1C(=O)[C@@]23C(=O)O[C@H]4CCC(C)(C)[C@H]5[C@H](O)OC[C@@]45[C@@H]2CC[C@@H]1[C@H]3OC(=O)c1ccc(C(F)(F)F)cc1", "pIC50": 6.43}

* * *

Each entry below carries its reported IC50.
test system: Bel-7402; test: Cytotoxicity against human Bel7402 cells after 72 hrs by MTT assay; assay type: functional, cell-based; conditions: Bel-7402, 72 h
assay.readout: IC50 (nM)

{"structure.smiles": "C=C1C(=O)[C@@]23C(=O)O[C@H]4CCC(C)(C)[C@H]5[C@H](O)OC[C@@]45[C@@H]2CC[C@@H]1[C@H]3OC(=O)c1ccccc1Cl", "assay.readout": "IC50", "quantity.unit": "nM", "readout.value": 850}
{"structure.smiles": "C=C1C(=O)[C@@]23C(=O)O[C@H]4CCC(C)(C)[C@H]5[C@H](O)OC[C@@]45[C@@H]2CC[C@@H]1[C@H]3OC(=O)c1cc(F)c(F)c(F)c1F", "assay.readout": "IC50", "quantity.unit": "nM", "readout.value": 890}
{"structure.smiles": "C=C1C(=O)[C@@]23C(=O)O[C@H]4CCC(C)(C)[C@H]5[C@H](O)OC[C@@]45[C@@H]2CC[C@@H]1[C@H]3OC(=O)c1ccc(OC)cc1", "assay.readout": "IC50", "quantity.unit": "nM", "readout.value": 1790}
{"structure.smiles": "C=C1C(=O)[C@@]23C(=O)O[C@H]4CCC(C)(C)[C@H]5[C@H](O)OC[C@@]45[C@@H]2CC[C@@H]1[C@H]3OC(=O)c1ccc(C)cc1", "assay.readout": "IC50", "quantity.unit": "nM", "readout.value": 1010}
{"structure.smiles": "C=C1C(=O)[C@@]23C(=O)O[C@H]4CCC(C)(C)[C@H]5[C@H](O)OC[C@@]45[C@@H]2CC[C@@H]1[C@H]3OC(C)=O", "assay.readout": "IC50", "quantity.unit": "nM", "readout.value": 1970}

* * *

test system: MGC-803; test: Cytotoxicity against human MGC803 cells after 72 hrs by MTT assay; format: functional, cell-based; conditions: MGC-803, 72 h
Labelling: IC50 reported below 1000 nM becomes t; at or above becomes f.

{"structure.smiles": "C=C1C(=O)[C@@]23C(=O)O[C@H]4CCC(C)(C)[C@H]5[C@H](O)OC[C@@]45[C@@H]2CC[C@@H]1[C@H]3O", "label.class": "f"}
{"structure.smiles": "C=C1C(=O)[C@@]23C(=O)O[C@H]4CCC(C)(C)[C@H]5[C@H](O)OC[C@@]45[C@@H]2CC[C@@H]1[C@H]3OC(=O)c1ccc(C(F)(F)F)cc1", "label.class": "t"}
{"structure.smiles": "C=C1C(=O)[C@@]23C(=O)O[C@H]4CCC(C)(C)[C@H]5[C@H](O)OC[C@@]45[C@@H]2CC[C@@H]1[C@H]3OC(=O)c1ccc(C)cc1", "label.class": "t"}
{"structure.smiles": "C=C1C(=O)[C@@]23C(=O)O[C@H]4CCC(C)(C)[C@H]5[C@H](O)OC[C@@]45[C@@H]2CC[C@@H]1[C@H]3OC(=O)c1ccc(Cl)cc1", "label.class": "f"}
{"structure.smiles": "C=C1C(=O)[C@@]23C(=O)O[C@H]4CCC(C)(C)[C@H]5[C@H](O)OC[C@@]45[C@@H]2CC[C@@H]1[C@H]3OC(=O)c1cc(F)c(F)c(F)c1F", "label.class": "f"}
{"structure.smiles": "C=C1C(=O)[C@@]23C(=O)O[C@H]4CCC(C)(C)[C@H]5[C@H](O)OC[C@@]45[C@@H]2CC[C@@H]1[C@H]3OC(=O)CC", "label.class": "f"}

* * *

system: MGC-803; experiment: Cytotoxicity against human MGC803 cells after 72 hrs by MTT assay; assay type: functional, cell-based; details: MGC-803, 72 h
Labelling: IC50 reported below 900 nM becomes 1 (yes); at or above becomes 0 (no).

{"structure.smiles": "C=C1C(=O)[C@@]23C(=O)O[C@H]4CCC(C)(C)[C@H]5[C@H](O)OC[C@@]45[C@@H]2CC[C@@H]1[C@H]3OC(=O)c1ccccc1", "label.class": "0 (no)"}
{"structure.smiles": "C=C1C(=O)[C@@]23C(=O)O[C@H]4CCC(C)(C)[C@H]5[C@H](O)OC[C@@]45[C@@H]2CC[C@@H]1[C@H]3OC(C)=O", "label.class": "0 (no)"}
{"structure.smiles": "C=C1C(=O)[C@@]23C(=O)O[C@H]4CCC(C)(C)[C@H]5[C@H](O)OC[C@@]45[C@@H]2CC[C@@H]1[C@H]3OC(=O)c1ccc([N+](=O)[O-])cc1", "label.class": "1 (yes)"}
{"structure.smiles": "C=C1C(=O)[C@@]23C(=O)O[C@H]4CCC(C)(C)[C@H]5[C@H](O)OC[C@@]45[C@@H]2CC[C@@H]1[C@H]3OC(=O)c1ccc(OC)cc1", "label.class": "0 (no)"}
{"structure.smiles": "C=C1C(=O)[C@@]23C(=O)O[C@H]4CCC(C)(C)[C@H]5[C@H](O)OC[C@@]45[C@@H]2CC[C@@H]1[C@H]3OC(=O)c1ccccc1Cl", "label.class": "1 (yes)"}

Source listed as ChEMBL document CHEMBL2390862.
